All values here come from patent US4278797A.

test system: Mouse writhing; experiment: mouse writhing test (intraperitoneal acetic acid); type: in vivo, mice; conditions: Mus musculus; oral; dose reducing writhing by fifty percent; read-out: Mouse writhing oral ED50
experimental.endpoint: ED50 (mg/kg)
Quick note: give the figure in mg/kg, leave out the unit.

Please fill in: ED50 reported for CN1CCC2(c3cccc(O)c3)CCCC1C2 (stereo not shown) [2-methyl-5-(3-hydroxyphenyl)-morphan, 2-Methyl-5-(3-hydroxyphenyl)morphan] = 29

Please fill in: ED50 reported for CC1CC2CC(c3cccc(O)c3)(CCN2C)C1 (stereo not shown) [2,7-dimethyl-5-(3-hydroxyphenyl)morphan, 2,7-Dimethyl-5-(3-hydroxyphenyl)morphan] = 28.5

Please fill in: ED50 reported for COc1cccc(C23CC(C)CC(C2)N(C)C(C)C3)c1 (stereo not shown) = 22

Please fill in: ED50 reported for CC1CC2(c3cccc(O)c3)CCCC(C2)N1C (stereo not shown) [2,3-dimethyl-5-(3-hydroxyphenyl)morphan, 2,3-Dimethyl-5-(3-hydroxyphenyl)morphan] = 23

Please fill in: ED50 reported for COc1cccc(C23CCCC(C2)N(C)CC3)c1 (stereo not shown) = 27.5

Please fill in: ED50 reported for COc1cccc(C23CCN(C)C(CC(C)C2)C3)c1 (stereo not shown) = 28.5

Please fill in: ED50 reported for CC1CC2CC(c3cccc(O)c3)(C1)CC(C)N2C (stereo not shown) = 14

* * *

test system: Rat tail jerk; assay: rat-tail jerk assay (light beam or heat source applied to the tail); type: in vivo; details: Rattus norvegicus, sc; subcutaneous; dose causing a two second delay in tail removal compared to control animals receiving no drug; read-out: Rat tail jerk subcutaneous injection ED2 seconds
experimental.endpoint: ED (2 s delay) (mg/kg)
Quick note: give the figure in mg/kg, leave out the unit.

Please fill in: ED (2 s delay) reported for COc1cccc(C23CC(C)CC(C2)N(C)C(C)C3)c1 (stereo not shown) = 20

Please fill in: ED (2 s delay) reported for CN1CCC2(c3cccc(O)c3)CCCC1C2 (stereo not shown) [2-methyl-5-(3-hydroxyphenyl)-morphan, 2-Methyl-5-(3-hydroxyphenyl)morphan] = 1

Please fill in: ED (2 s delay) reported for CC1CC2CC(c3cccc(O)c3)(C1)CC(C)N2C (stereo not shown) = 0.5

Please fill in: ED (2 s delay) reported for CC1CC2CC(c3cccc(O)c3)(CCN2C)C1 (stereo not shown) [2,7-dimethyl-5-(3-hydroxyphenyl)morphan, 2,7-Dimethyl-5-(3-hydroxyphenyl)morphan] = 0.5

* * *

test system: Rat tail jerk; assay: rat-tail jerk assay (light beam or heat source applied to the tail); format: in vivo; settings: Rattus norvegicus, sc; subcutaneous; dose causing a two second delay in tail removal compared to control animals receiving no drug; read-out: Rat tail jerk subcutaneous injection ED2 seconds
experimental.endpoint: ED (2 s delay) (mg/kg)
Quick note: give the figure in mg/kg, leave out the unit.

// returns ED (2 s delay) for CC1CC2(c3cccc(O)c3)CCCC(C2)N1C (stereo not drawn) [2,3-dimethyl-5-(3-hydroxyphenyl)morphan, 2,3-Dimethyl-5-(3-hydroxyphenyl)morphan] with Rat tail jerk; value = 2

// returns ED (2 s delay) for COc1cccc(C23CCCC(C2)N(C)CC3)c1 (stereo not drawn) with Rat tail jerk; value = 10

// returns ED (2 s delay) for COc1cccc(C23CCN(C)C(CC(C)C2)C3)c1 (stereo not drawn) with Rat tail jerk; value = 10
